- measured-on: human glucagon receptor (Homo sapiens, UniProt P47871)
- Construct: made in house; host or cells: FreeStyle CHO cells, transient transfection with pMSRαneo/hGCGR; membrane fraction (35,000 rpm pellet)
- Sequence (P47871 26-477): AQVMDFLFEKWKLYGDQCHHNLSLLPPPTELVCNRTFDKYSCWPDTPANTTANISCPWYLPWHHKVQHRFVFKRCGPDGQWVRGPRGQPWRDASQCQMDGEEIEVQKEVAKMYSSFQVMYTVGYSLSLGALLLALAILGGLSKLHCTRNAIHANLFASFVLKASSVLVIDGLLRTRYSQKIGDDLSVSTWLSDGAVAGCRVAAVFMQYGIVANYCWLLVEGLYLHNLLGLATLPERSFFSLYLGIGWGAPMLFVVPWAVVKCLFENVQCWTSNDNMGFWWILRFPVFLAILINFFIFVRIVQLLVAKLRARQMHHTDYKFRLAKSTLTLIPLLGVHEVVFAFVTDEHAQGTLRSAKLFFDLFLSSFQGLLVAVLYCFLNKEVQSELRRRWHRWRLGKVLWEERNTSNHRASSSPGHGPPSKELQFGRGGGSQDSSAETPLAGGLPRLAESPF
- protocol-details: Glucagon binding inhibitory activity ([125I]-glucagon binding to glucagon receptor membrane protein)
- condition: test compound 10 μM; 0.4% DMSO = 0%, non-labeled glucagon 1 μM = 100%; read-out: inhibitory rate (%) at 10 μM
Entries annotated with measured inhibition at 10 µM
reported-metric: inhibition at 10 µM (%)

>  <molecule>
Cc1sc2ccccc2c1C(Nc1ccc(C(=O)N(C)CCC(=O)O)cc1)C1CCCCC1 (stereo not shown)

>  <reported-metric>
inhibition at 10 µM

>  <reported>
67

$$$$
>  <molecule>
Cc1c(C(Nc2ccc(C(=O)NCCC(=O)O)cc2)C2CCCCC2)oc2ccc(Cl)cc12 (stereo not shown)

>  <reported-metric>
inhibition at 10 µM

>  <reported>
75

$$$$
>  <molecule>
COc1ccc2oc(C(CCCCSC)Nc3ccc(C(=O)NCCC(=O)O)cc3)c(C)c2c1 (stereo not shown)

>  <reported-metric>
inhibition at 10 µM

>  <reported>
73

$$$$
>  <molecule>
Cc1c(C(Nc2ccc(C(=O)N(C)CCC(=O)O)cc2)C2CCCCC2)oc2ccc(OCc3ccc(Cl)nc3)cc12 (stereo not shown)

>  <reported-metric>
inhibition at 10 µM

>  <reported>
89

$$$$
>  <molecule>
Cc1c(C(Nc2ccc(C(=O)N(C)CCC(=O)O)cc2)C2CCCCC2)oc2cc(F)ccc12 (stereo not shown)

>  <reported-metric>
inhibition at 10 µM

>  <reported>
76

$$$$
>  <molecule>
Cc1c(C(Nc2ccc(C(=O)N(C)CCC(=O)O)cc2)C(C)C)oc2ccc(C3CC3)cc12 (stereo not shown)

>  <reported-metric>
inhibition at 10 µM

>  <reported>
74

$$$$
>  <molecule>
Cc1c(C(CC(C)C)Nc2ccc(C(=O)NCCC(=O)O)cn2)sc2ccccc12 (stereo not shown)

>  <reported-metric>
inhibition at 10 µM

>  <reported>
73

$$$$
>  <molecule>
Cc1c(C(CC(C)C)Nc2ccc(C(=O)NCCC(=O)O)cc2)oc2ccccc12 (stereo not shown)

>  <reported-metric>
inhibition at 10 µM

>  <reported>
77

$$$$
>  <molecule>
COCc1nn(-c2cccc(OC)c2)cc1C(Nc1ccc(C(=O)N(C)CCC(=O)O)cc1)C1CCCCC1 (stereo not shown)

>  <reported-metric>
inhibition at 10 µM

>  <reported>
68

$$$$
>  <molecule>
Cc1c(C(Nc2ccc(C(=O)N(C)CCC(=O)O)cn2)C2CCCCC2)oc2c(F)cc(F)cc12 (stereo not shown)

>  <reported-metric>
inhibition at 10 µM

>  <reported>
71

$$$$
>  <molecule>
Cc1c(C(Nc2ccc(C(=O)NCCC(=O)O)cc2)C2CCCCC2)oc2cc(F)ccc12 (stereo not shown)

>  <reported-metric>
inhibition at 10 µM

>  <reported>
76

$$$$
>  <molecule>
Cc1nn(-c2cccc(Cl)c2)cc1C(Nc1ccc(C(=O)N(C)CCC(=O)O)cc1)C1CCCCC1 (stereo not shown)

>  <reported-metric>
inhibition at 10 µM

>  <reported>
71

$$$$
>  <molecule>
COCc1nn(-c2ccc(OC)cc2)cc1C(Nc1ccc(C(=O)N(C)CCC(=O)O)cc1)C1CCCCC1 (stereo not shown)

>  <reported-metric>
inhibition at 10 µM

>  <reported>
69

$$$$
>  <molecule>
Cc1c(C(Nc2ccc(C(=O)NCCC(=O)O)cc2)C2CCCC2)sc2ccccc12 (stereo not shown)

>  <reported-metric>
inhibition at 10 µM

>  <reported>
90

$$$$
>  <molecule>
COc1cccc(-n2cc(C)c(C(Nc3ccc(C(=O)N(C)CCC(=O)O)cc3)C3CCCCC3)n2)c1 (stereo not shown)

>  <reported-metric>
inhibition at 10 µM

>  <reported>
61

$$$$
>  <molecule>
COc1ccc(-n2cc(C(Nc3ccc(C(=O)NCCC(=O)O)cc3)C3CCCCC3)c(C3CC3)n2)cc1 (stereo not shown)

>  <reported-metric>
inhibition at 10 µM

>  <reported>
71

$$$$
>  <molecule>
O=C(O)CCNC(=O)c1ccc(NC(c2cn(-c3ccccc3)nc2OCc2ccccc2)C2CCCCC2)cc1 (stereo not shown)

>  <reported-metric>
inhibition at 10 µM

>  <reported>
74

$$$$
>  <molecule>
CCC(CC)C(Nc1ccc(C(=O)N(C)CCC(=O)O)cc1)c1oc2ccc(OC)cc2c1C (stereo not shown)

>  <reported-metric>
inhibition at 10 µM

>  <reported>
67

$$$$
>  <molecule>
COc1cc(OC)cc(-n2cc(C(Nc3ccc(C(=O)NCCC(=O)O)cc3)C3CCCCC3)c(C)n2)c1 (stereo not shown)

>  <reported-metric>
inhibition at 10 µM

>  <reported>
78

$$$$
>  <molecule>
O=C(O)CCNC(=O)c1ccc(NC(c2cn(-c3ccccc3)nc2CCc2ccccc2)C2CCCCC2)cc1 (stereo not shown)

>  <reported-metric>
inhibition at 10 µM

>  <reported>
72

$$$$
>  <molecule>
COCCOc1ccc2oc(C(Nc3ccc(C(=O)N(C)CCC(=O)O)cc3)C(C)C)c(C)c2c1 (stereo not shown)

>  <reported-metric>
inhibition at 10 µM

>  <reported>
74

$$$$
>  <molecule>
Cc1c(C(Nc2ccc(C(=O)N(C)CCC(=O)O)cc2)C(C)C)oc2ccc(F)cc12 (stereo not shown)

>  <reported-metric>
inhibition at 10 µM

>  <reported>
72

$$$$
>  <molecule>
COc1ccc(-n2cc(C(Nc3ccc(C(=O)NCCC(=O)O)cc3)C3CCCCC3)c(C)n2)cc1 (stereo not shown)

>  <reported-metric>
inhibition at 10 µM

>  <reported>
71

$$$$
>  <molecule>
Cc1c(C(Nc2ccc(C(=O)N(C)CCC(=O)O)cc2)C2CCCCC2)oc2ccc(OC3CCSCC3)cc12 (stereo not shown)

>  <reported-metric>
inhibition at 10 µM

>  <reported>
92

$$$$
>  <molecule>
CCOc1cccc(-n2cc(C(CC(C)C)Nc3ccc(C(=O)NCCC(=O)O)cc3)c(CC)n2)c1 (stereo not shown)

>  <reported-metric>
inhibition at 10 µM

>  <reported>
76

$$$$
>  <molecule>
COc1ccc2cc(C(Nc3ccc(C(=O)N(C)CCC(=O)O)cc3)C3CCCCC3)oc2c1 (stereo not shown)

>  <reported-metric>
inhibition at 10 µM

>  <reported>
62

$$$$
>  <molecule>
Cc1c(C(Nc2ccc(C(=O)N(C)CCC(=O)O)cc2)C2CCCCC2)sc2ccccc12 (stereo not shown)

>  <reported-metric>
inhibition at 10 µM

>  <reported>
85

$$$$
>  <molecule>
CCNC(=O)Nc1ccc2oc(C(Nc3ccc(C(=O)N(C)CCC(=O)O)cc3)C3CCCCC3)c(C)c2c1 (stereo not shown)

>  <reported-metric>
inhibition at 10 µM

>  <reported>
53

$$$$
>  <molecule>
COCCOc1ccc2oc(C(Nc3ccc(C(=O)N(C)CCC(=O)O)cc3)C3CCCCC3)c(C)c2c1 (stereo not shown)

>  <reported-metric>
inhibition at 10 µM

>  <reported>
73

$$$$
>  <molecule>
Cc1noc(C)c1-c1ccc2oc(C(Nc3ccc(C(=O)N(C)CCC(=O)O)cc3)C3CCCCC3)c(C)c2c1 (stereo not shown)

>  <reported-metric>
inhibition at 10 µM

>  <reported>
86

$$$$
>  <molecule>
CCn1nc(-c2ccc(OC(F)(F)F)cc2)cc1C(Nc1ccc(C(=O)N(C)CCC(=O)O)cc1)C1CCCCC1 (stereo not shown)

>  <reported-metric>
inhibition at 10 µM

>  <reported>
69

$$$$
